- Experimental details: Pharmacokinetic study after single i.p. administration, serum and brain concentrations by LC-MS/MS, non-compartmental analysis
- Format: in vivo, Albino Swiss mice
- Protocol conditions: Albino Swiss, mouse, brain/serum, ip; mice, 5 mg/kg i.p.; read-out: Kbrain/serum (brain/serum partitioning coefficient)
Measurement type: Kp

Use these answered entries as a reference point.
# Compound, Result value
measured = [
    ("O=C1c2ccccc2C(=O)N1CC(O)CN1CCN(C(c2ccccc2)c2ccccc2)CC1 (stereo not shown)", 1.62),
    ("O=C1c2ccccc2C(=O)N1CC(O)CN1CCN(c2ccccc2)CC1 (stereo not shown)", 1.77),
]

A: COc1ccccc1N1CCN(CC(O)CN2C(=O)c3ccccc3C2=O)CC1 (stereo not shown)
B: O=C1c2ccccc2C(=O)N1CC(O)CN1CCN(c2cccc(C(F)(F)F)c2)CC1 (stereo not shown)
When A and B are compared, which has the higher number for Kp? Use the label to indicate which entry you chose.
B
(B: 2.05, A: 0.79)
